- System: Echinochloa crus-galli
- protocol: Test Example 12: herbicidal effect test by treatment during growing period in paddy field
- Format: in vivo
- condition.set: 120 g/10a; treatment seven days after sowing in flooded paddy pot; assessed 14 days after treatment
Provide the reported Weed suppression rate (%) Echinochloa crus-galli of each item.
Answers are plain numbers, in %.

Example cases with answers are listed next.
* COc1ccc(S(=O)(=O)n2ncn(C(=O)N(c3c(F)cc(F)cc3F)C(C)C)c2=O)cc1 [Compound 11-1155] | 100
* Cc1ccc(S(=O)(=O)n2ncn(C(=O)N(c3c(F)c(F)cc(F)c3F)C(C)C)c2=O)cc1 [Compound 11-642] | 100
* CC(C)N(C(=O)n1cnn(S(=O)(=O)C2CCCCC2)c1=O)c1c(F)cccc1F [Compound 11-296] | 100
* CC(C)N(C(=O)n1cnn(S(=O)(=O)C2CC2)c1=O)c1cccc(F)c1 [Compound 11-161] | 90
* CC(C)N(Cc1ccc(F)cc1F)C(=O)n1cnn(S(=O)(=O)N(C)C)c1=O [Compound 11-1088] | 90

State the recorded Weed suppression rate (%) Echinochloa crus-galli for every item in the following list.
1. COc1ccc(S(=O)(=O)n2ncn(C(=O)N(c3c(F)cccc3F)C(C)C)c2=O)cc1 [Compound 11-1151]
2. CC(C)N(C(=O)n1cnn(S(=O)(=O)c2c(F)cccc2F)c1=O)c1cccc(F)c1F [Compound 11-772]

100
100

For each entry beneath this line, provide reported Weed suppression rate (%) Echinochloa crus-galli.
1. CC(C)N(C(=O)n1cnn(S(=O)(=O)c2cccs2)c1=O)c1c(F)cc(F)cc1F [Compound 11-1026]
2. CCS(=O)(=O)n1ncn(C(=O)N(c2c(F)cc(F)cc2F)C(C)C)c1=O [Compound 11-1154]
3. CC(C)N(C(=O)n1cnn(S(=O)(=O)C2CC2)c1=O)c1ccc(Br)cc1Cl [Compound 11-209]
4. Cc1ccc(N(C(=O)n2cnn(S(=O)(=O)c3c(F)c(F)c(F)c(F)c3F)c2=O)C(C)C)c(F)c1 [Compound 11-825]

1: 100; 2: 100; 3: 100; 4: 90

Below are 5 molecules. Give each one its Weed suppression rate (%) Echinochloa crus-galli.
1. CC(C)N(C(=O)n1cnn(S(=O)(=O)c2cccs2)c1=O)c1ccccc1 [Compound 11-1011]
2. Cc1cc(F)ccc1N(C(=O)n1cnn(S(=O)(=O)C2CCCCC2)c1=O)C(C)C [Compound 11-307]
3. Cc1cc(F)ccc1N(C(=O)n1cnn(S(=O)(=O)c2ccc(F)cc2)c1=O)C(C)C [Compound 11-488]
4. CN(C(=O)n1cnn(S(=O)(=O)C2CCCCC2)c1=O)c1ccc(F)cc1F [Compound 11-1129]
5. CC(C)N(C(=O)n1cnn(S(=O)(=O)C(C)C)c1=O)c1ccc(Cl)cn1 [Compound 11-85]

[90, 90, 100, 100, 90]
